# TESTED_ON: T1, HpFurWT (Helicobacter pylori, UniProt O25671 1-150)
# T1 sequence: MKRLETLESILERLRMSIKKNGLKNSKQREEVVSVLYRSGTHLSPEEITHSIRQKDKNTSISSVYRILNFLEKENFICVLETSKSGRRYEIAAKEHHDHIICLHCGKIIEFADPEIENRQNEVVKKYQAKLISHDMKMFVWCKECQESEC
# MEASUREMENT_DESCRIPTION: fluorescence anisotropy
pKd: −log10 of the molar value.
QUANTITY_NAME: pKd

| BINDER | NUMERIC_VALUE |
| --- | --- |
| pfr apo-Fur binding site duplex (dsDNA) DNA 1: TTCATTATCATTTATGCTAT DNA 2: ATAGCATAAATGATAATGAA | 7.37 |
